System: ANGPTL3 gene
Test: ANGPTL3 gRNA/SpCas9 editing in primary human hepatocytes (Table 3)
Type: cell-based
Protocol: In set of experiments, PCSK9 gRNAs were co-transfected with an equivalent amount (1:1 ratio by weight) of in vitro transcribed commercially available SpCas9 mRNA MS002 purchased from TriLink Biotechnologies into primary human hepatocytes at 2500, 500, or 100 ng/RNA/mL and processed as described in detailed methods. Extracted genomic DNA was analyzed for gene editing at the target site with next-generation sequencing of PCR amplicons generated around the target sites. […]
// Human Primary Hepatocyte Editing % 100 ng/ml lookup, one value per entry
quantityName: Human Primary Hepatocyte Editing % 100 ng/ml (%)

molecule="GA110: ANGPTL3 gRNA; protospacer GACCATGTCCCAACTGAAGG (SEQ ID NO: 108) (nucleic acid, 2'-O-methyl at 1, 2, other sugars and backbone not given here; further chemistry not fully specified) guide: GACCATGTCCCAACTGAAGGGTTTTAGAGCTAGAAATAGCAAGTTAAAATAAGGCTAGTCCGTTATCAACTTGAAAAAGTGGCACCGAGTCGGTGCTTTT" resultunits=% observedvalue=5.37
molecule="GA137: ANGPTL3 gRNA; protospacer TATCAGGTAAAACCTGTCTA (SEQ ID NO: 135) (nucleic acid, 2'-O-methyl at 1, 2, other sugars, backbone and T or U not given here; further chemistry not fully specified) guide: UATCAGGTAAAACCTGTCTAGTTTTAGAGCTAGAAATAGCAAGTTAAAATAAGGCTAGTCCGTTATCAACTTGAAAAAGTGGCACCGAGTCGGTGCTTTT" resultunits=% observedvalue=11.44
molecule="GA127: ANGPTL3 gRNA; protospacer AACATGATGGTAAGACACTT (SEQ ID NO: 125) (nucleic acid, 2'-O-methyl at 1, 2, other sugars and backbone not given here; further chemistry not fully specified) guide: AACATGATGGTAAGACACTTGTTTTAGAGCTAGAAATAGCAAGTTAAAATAAGGCTAGTCCGTTATCAACTTGAAAAAGTGGCACCGAGTCGGTGCTTTT" resultunits=% observedvalue=5.77
molecule="GA145: ANGPTL3 gRNA; protospacer CATTATATTCAGGTAGTCCA (SEQ ID NO: 143) (nucleic acid, 2'-O-methyl at 1, 2, other sugars and backbone not given here; further chemistry not fully specified) guide: CATTATATTCAGGTAGTCCAGTTTTAGAGCTAGAAATAGCAAGTTAAAATAAGGCTAGTCCGTTATCAACTTGAAAAAGTGGCACCGAGTCGGTGCTTTT" resultunits=% observedvalue=12.55
molecule="GA132: ANGPTL3 gRNA; protospacer GGAAGATAGAGAAATTTCTG (SEQ ID NO: 130) (nucleic acid, 2'-O-methyl at 1, 2, other sugars and backbone not given here; further chemistry not fully specified) guide: GGAAGATAGAGAAATTTCTGGTTTTAGAGCTAGAAATAGCAAGTTAAAATAAGGCTAGTCCGTTATCAACTTGAAAAAGTGGCACCGAGTCGGTGCTTTT" resultunits=% observedvalue=15.25
molecule="GA130: ANGPTL3 gRNA; protospacer ATGATGGTAAGACACTTTGG (SEQ ID NO: 128) (nucleic acid, 2'-O-methyl at 1, 2, other sugars, backbone and T or U not given here; further chemistry not fully specified) guide: AUGATGGTAAGACACTTTGGGTTTTAGAGCTAGAAATAGCAAGTTAAAATAAGGCTAGTCCGTTATCAACTTGAAAAAGTGGCACCGAGTCGGTGCTTTT" resultunits=% observedvalue=7.51
molecule="GA108: ANGPTL3 gRNA; protospacer TCCCAACTGAAGGAGGCCAT (SEQ ID NO: 106) (nucleic acid, 2'-O-methyl at 1, 2, other sugars, backbone and T or U not given here; further chemistry not fully specified) guide: UCCCAACTGAAGGAGGCCATGTTTTAGAGCTAGAAATAGCAAGTTAAAATAAGGCTAGTCCGTTATCAACTTGAAAAAGTGGCACCGAGTCGGTGCTTTT" resultunits=% observedvalue=4.95
molecule="GA126: ANGPTL3 gRNA; protospacer GGAGTAGTTCTTGGTGCTCT (SEQ ID NO: 124) (nucleic acid, 2'-O-methyl at 1, 2, other sugars and backbone not given here; further chemistry not fully specified) guide: GGAGTAGTTCTTGGTGCTCTGTTTTAGAGCTAGAAATAGCAAGTTAAAATAAGGCTAGTCCGTTATCAACTTGAAAAAGTGGCACCGAGTCGGTGCTTTT" resultunits=% observedvalue=6.73
molecule="GA109: ANGPTL3 gRNA; protospacer GGCCTCCTTCAGTTGGGACA (SEQ ID NO: 107) (nucleic acid, 2'-O-methyl at 1, 2, other sugars and backbone not given here; further chemistry not fully specified) guide: GGCCTCCTTCAGTTGGGACAGTTTTAGAGCTAGAAATAGCAAGTTAAAATAAGGCTAGTCCGTTATCAACTTGAAAAAGTGGCACCGAGTCGGTGCTTTT" resultunits=% observedvalue=6.60
molecule="GA125: ANGPTL3 gRNA; protospacer TGATGGTAAGACACTTTGGT (SEQ ID NO: 123) (nucleic acid, 2'-O-methyl at 1, 2, other sugars, backbone and T or U not given here; further chemistry not fully specified) guide: UGATGGTAAGACACTTTGGTGTTTTAGAGCTAGAAATAGCAAGTTAAAATAAGGCTAGTCCGTTATCAACTTGAAAAAGTGGCACCGAGTCGGTGCTTTT" resultunits=% observedvalue=5.04
molecule="GA151: ANGPTL3 gRNA; protospacer GAGAACTACAAATATGGTTT (SEQ ID NO: 149) (nucleic acid, 2'-O-methyl at 1, 2, other sugars and backbone not given here; further chemistry not fully specified) guide: GAGAACTACAAATATGGTTTGTTTTAGAGCTAGAAATAGCAAGTTAAAATAAGGCTAGTCCGTTATCAACTTGAAAAAGTGGCACCGAGTCGGTGCTTTT" resultunits=% observedvalue=10.56

Data origin, for the record: patent US20250152746A1
